- experiment: Phase I metabolic stability in mouse liver microsomes (MLMs)
- Assay type: in vitro ADME, CD-1 mice
- experimental_parameters: CD-1, mouse, liver microsomes, pH 7.4; MLM
The compounds listed here are annotated with their CLint scaled at 1 µM.
The answer is to be given in mL/min/kg; state only the numeric part.

O=S1(=O)c2cc(-c3nnc(C(F)F)o3)ccc2CN1C(c1ccccn1)[C@H](O)c1ccccn1 (stereo partly shown) : 41.4

Now examine the next entry.
Give the measured CLint scaled at 1 µM for O=C(N[C@H]1[C@H](N2Cc3ccc(-c4nnc(C(F)F)o4)cc3S2(=O)=O)CCCC1(F)F)C(F)F
18.6

---

The compounds listed here are annotated with their concentration at 2 h.
- experiment: Brain-to-blood drug concentration ratio of mice
- Type: in vivo
- experimental_parameters: mouse, plasma, 5 mg/kg PO, 2 h, read-out: Blood drug concentration
Your reply should be a number followed by the unit it is expressed in.

O=C(N[C@@H]1CCOC[C@H]1N1Cc2ccc(-c3nnc(C(F)F)o3)cc2S1(=O)=O)C(F)F : 1380 ng/mL
O=C(N[C@@H]1COCC[C@H]1N1Cc2ccc(-c3nnc(C(F)F)o3)cc2S1(=O)=O)C(F)F : 1780 ng/mL
O=C(N[C@@H]1CCCC[C@H]1N1Cc2ccc(-c3nnc(C(F)F)o3)cc2S1(=O)=O)N1CCOCC1 : 930 ng/mL
CN(C)C(=O)N[C@@H]1CCCC[C@H]1N1Cc2ccc(-c3nnc(C(F)F)o3)cc2S1(=O)=O : 252 ng/mL
CC(F)(F)C(=O)N[C@@H]1CCCC(F)(F)[C@H]1N1Cc2ccc(-c3nnc(C(F)F)o3)cc2S1(=O)=O : 2020 ng/mL

Give the measured concentration at 2 h for O=S(=O)(N[C@@H]1CCCC[C@H]1N1Cc2ccc(-c3nnc(C(F)F)o3)cc2S1(=O)=O)C1CC1
2260 ng/mL

Give the measured concentration at 2 h for O=S1(=O)c2cc(-c3nnc(C(F)F)o3)ccc2CN1[C@H](c1ccccn1)[C@H](O)c1ccc(F)cn1
1060 ng/mL

Give the measured concentration at 2 h for Cn1cc([C@@H]([C@H](O)c2ccccc2)N2Cc3ccc(-c4nnc(C(F)F)o4)cc3S2(=O)=O)cn1
1910 ng/mL

---

The molecules listed here are annotated with their AUC(0-t).
- experiment: Pharmacokinetic test in mice (IV and PO)
- Format: in vivo, BALB/c mice
- experimental_parameters: BALB/c, mouse, plasma; mice, IV 2 mg/kg
The answer is to be given in µM·h; state only the numeric part.

CC(F)(F)C(=O)N[C@@H]1CCCC[C@H]1N1Cc2ccc(-c3nnc(C(F)F)o3)cc2S1(=O)=O : 9.88
O=C(N[C@H]1[C@H](N2Cc3ccc(-c4nnc(C(F)F)o4)cc3S2(=O)=O)CCCC1(F)F)C(F)F : 12.8
O=C(N[C@@H]1CCCC[C@H]1N1Cc2ccc(-c3nnc(C(F)F)o3)cc2S1(=O)=O)C(F)F : 12.6

Now examine the next entry.
Give the measured AUC(0-t) for O=S1(=O)c2cc(-c3nnc(C(F)F)o3)ccc2CN1C(c1ccccn1)[C@H](O)c1ccccn1 (stereo partly shown)
8.61

---

The molecules listed here are annotated with their concentration at 4 h.
- experiment: Brain-to-blood drug concentration ratio of mice
- Format: in vivo
- experimental_parameters: mouse, plasma, 2 mg/kg IV, 4 h, read-out: Blood drug concentration
The answer is to be given in ng/mL; state only the numeric part.

CC(F)(F)C(=O)N[C@@H]1CCCC[C@H]1N1Cc2ccc(-c3nnc(C(F)F)o3)cc2S1(=O)=O : 453

Now examine the next entry.
Give the measured concentration at 4 h for O=C(N[C@@H]1CCCC[C@H]1N1Cc2ccc(-c3nnc(C(F)F)o3)cc2S1(=O)=O)C(F)F
595

---

The compounds listed here are annotated with their Vd.
- experiment: Pharmacokinetic test in mice (IV and PO)
- Format: in vivo, BALB/c mice
- experimental_parameters: BALB/c, mouse, plasma; mice, IV 2 mg/kg; read-out: Vz
Your reply should be a number followed by the unit it is expressed in.

O=C(N[C@H]1[C@H](N2Cc3ccc(-c4nnc(C(F)F)o4)cc3S2(=O)=O)CCCC1(F)F)C(F)F [Compound 61] : 1.18 L/kg

Give the measured Vd for O=S1(=O)c2cc(-c3nnc(C(F)F)o3)ccc2CN1C(c1ccccn1)[C@H](O)c1ccccn1 (stereo partly shown) [Compound 83]
1.01 L/kg

Give the measured Vd for CC(F)(F)C(=O)N[C@@H]1CCCC[C@H]1N1Cc2ccc(-c3nnc(C(F)F)o3)cc2S1(=O)=O [Compound 1]
0.684 L/kg

Give the measured Vd for O=C(N[C@@H]1CCCC[C@H]1N1Cc2ccc(-c3nnc(C(F)F)o3)cc2S1(=O)=O)C(F)F [Compound 2]
0.55 L/kg

---

Recorded IC50 values (UniProtKB Q9UBN7) are given below.
Sequence (Q9UBN7 whole entry): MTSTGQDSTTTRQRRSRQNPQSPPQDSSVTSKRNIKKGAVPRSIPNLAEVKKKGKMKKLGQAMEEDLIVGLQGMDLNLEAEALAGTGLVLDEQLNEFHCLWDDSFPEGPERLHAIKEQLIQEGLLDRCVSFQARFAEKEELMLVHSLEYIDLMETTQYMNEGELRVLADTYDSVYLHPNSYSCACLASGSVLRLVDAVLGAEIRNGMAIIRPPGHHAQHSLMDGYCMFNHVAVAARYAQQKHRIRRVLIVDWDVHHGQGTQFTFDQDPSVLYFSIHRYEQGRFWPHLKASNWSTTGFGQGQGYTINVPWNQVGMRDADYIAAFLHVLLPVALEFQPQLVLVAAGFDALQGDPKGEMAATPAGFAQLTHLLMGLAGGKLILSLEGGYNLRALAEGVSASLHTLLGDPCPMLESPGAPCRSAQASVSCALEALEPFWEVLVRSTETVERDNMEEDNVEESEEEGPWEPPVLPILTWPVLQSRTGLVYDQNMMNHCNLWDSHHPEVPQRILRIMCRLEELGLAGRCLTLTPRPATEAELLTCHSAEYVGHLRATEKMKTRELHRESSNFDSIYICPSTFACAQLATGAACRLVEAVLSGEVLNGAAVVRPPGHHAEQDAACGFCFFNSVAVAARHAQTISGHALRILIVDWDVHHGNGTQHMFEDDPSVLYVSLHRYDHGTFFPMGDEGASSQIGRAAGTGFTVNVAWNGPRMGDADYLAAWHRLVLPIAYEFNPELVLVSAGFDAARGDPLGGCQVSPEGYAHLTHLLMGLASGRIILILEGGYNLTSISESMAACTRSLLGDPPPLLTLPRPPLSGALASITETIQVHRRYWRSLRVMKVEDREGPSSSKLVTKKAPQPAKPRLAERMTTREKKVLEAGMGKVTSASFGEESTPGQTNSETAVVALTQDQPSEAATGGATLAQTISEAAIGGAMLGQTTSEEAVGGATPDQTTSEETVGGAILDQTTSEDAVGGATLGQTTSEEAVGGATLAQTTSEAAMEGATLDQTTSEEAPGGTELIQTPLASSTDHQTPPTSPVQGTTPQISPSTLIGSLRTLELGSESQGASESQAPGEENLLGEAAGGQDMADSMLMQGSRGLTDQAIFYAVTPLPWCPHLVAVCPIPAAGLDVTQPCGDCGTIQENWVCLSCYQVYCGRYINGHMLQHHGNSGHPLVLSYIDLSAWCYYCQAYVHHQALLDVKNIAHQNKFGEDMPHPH
The answer is to be given in µM; state only the numeric part.

Cn1cc([C@@H](O)[C@H](c2cnn(C)c2)N2Cc3ccc(-c4nnc(C(F)F)o4)cc3S2(=O)=O)cn1 (single isomer, unassigned) [Compound 95j-B] : 0.0299
O=S1(=O)c2cc(-c3nnc(C(F)F)o3)ccc2CN1[C@@H](c1cnccn1)[C@H](O)c1cnccn1 (single isomer, unassigned) [Compound 99j-A] : 0.148
O=S1(=O)c2cc(-c3nnc(C(F)F)o3)ccc2CN1[C@@H](c1cnccn1)[C@H](O)c1cnccn1 (single isomer, unassigned) [Compound 99j-A-A] : 0.205
CC(F)(F)C(=O)N[C@H]1[C@H](N2Cc3ccc(-c4nnc(C(F)F)o4)cc3S2(=O)=O)CCCC1(F)F : 0.0567

State IC50 on UniProtKB Q9UBN7. Entry: CNC(=O)N[C@@H]1CCCC[C@H]1N1Cc2ccc(-c3nnc(C(F)F)o3)cc2S1(=O)=O
0.203

State IC50 on UniProtKB Q9UBN7. Entry: Cn1cc([C@@H](O)[C@H](c2cnn(C)c2)N2Cc3ccc(-c4nnc(C(F)F)o4)cc3S2(=O)=O)cn1 (single isomer, unassigned) [Compound 95j-B-B]
0.183

State IC50 on UniProtKB Q9UBN7. Entry: O=S1(=O)c2cc(-c3nnc(C(F)F)o3)ccc2CN1[C@@H](c1ccc(F)cn1)[C@H](O)c1ccc(F)cn1 (single isomer, unassigned) [Compound 88j-B]
0.668

---

- experiment: Pharmacokinetic test in mice (IV and PO)
- Assay type: in vivo, BALB/c mice
- experimental_parameters: BALB/c, mouse, plasma; mice, IV 1 mg/kg; read-out: MRT(0-∞)
The compounds listed here are annotated with their MRT inf.
The answer is to be given in h; state only the numeric part.

Worked examples follow.
O=S1(=O)c2cc(-c3nnc(C(F)F)o3)ccc2CN1[C@H](c1ccccn1)[C@H](O)c1ccc(F)cn1 : 0.8
O=C(N[C@@H]1CCOC[C@H]1N1Cc2ccc(-c3nnc(C(F)F)o3)cc2S1(=O)=O)C(F)F : 1.5
CC(F)(F)C(=O)N[C@@H]1CCCC(F)(F)[C@H]1N1Cc2ccc(-c3nnc(C(F)F)o3)cc2S1(=O)=O : 2.5
O=C(N[C@@H]1CCCC[C@H]1N1Cc2ccc(-c3nnc(C(F)F)o3)cc2S1(=O)=O)N1CCOCC1 : 0.542
Cn1cc([C@@H]([C@H](O)c2ccccc2)N2Cc3ccc(-c4nnc(C(F)F)o4)cc3S2(=O)=O)cn1 : 2.6
O=C(N[C@@H]1COCC[C@H]1N1Cc2ccc(-c3nnc(C(F)F)o3)cc2S1(=O)=O)C(F)F : 1.85

Now examine the next entry.
Give the measured MRT inf for CN(C)C(=O)N[C@@H]1CCCC[C@H]1N1Cc2ccc(-c3nnc(C(F)F)o3)cc2S1(=O)=O
0.6

---

- experiment: Pharmacokinetic test in mice (IV and PO)
- Format: in vivo, BALB/c mice
- experimental_parameters: BALB/c, mouse, plasma; mice, PO 30 mg/kg (Cmax); read-out: C0/Cmax
metric: Cmax (µM)
The answer is to be given in µM; state only the numeric part.

O=C(N[C@@H]1CCCC[C@H]1N1Cc2ccc(-c3nnc(C(F)F)o3)cc2S1(=O)=O)C(F)F [Compound 2] : 35

Give the measured Cmax for CC(F)(F)C(=O)N[C@@H]1CCCC[C@H]1N1Cc2ccc(-c3nnc(C(F)F)o3)cc2S1(=O)=O [Compound 1]
17.5

---

- experiment: Brain-to-blood drug concentration ratio of mice
- Type: in vivo
- experimental_parameters: mouse, brain/plasma, 2 mg/kg IV, 1 h
metric: Kp at 1 h
Answer with a number only.

CC(F)(F)C(=O)N[C@@H]1CCCC[C@H]1N1Cc2ccc(-c3nnc(C(F)F)o3)cc2S1(=O)=O : 0.29

Now examine the next entry.
Give the measured Kp at 1 h for O=C(N[C@@H]1CCCC[C@H]1N1Cc2ccc(-c3nnc(C(F)F)o3)cc2S1(=O)=O)C(F)F
0.26
